assay: solubility; format: physicochemical
experimental endpoint: solubility (mg/mL)

>>> df
                                   compound  quantitative_readout
0  CCOC(=O)C(C)(C)Oc1ccc(Cl)cc1 [clofibrate]                     5

* * *

Molecular target: human T1R3 receptor (Homo sapiens)
Construct: expressed in transfected cells
Sequence (Q7RTX0 21-852): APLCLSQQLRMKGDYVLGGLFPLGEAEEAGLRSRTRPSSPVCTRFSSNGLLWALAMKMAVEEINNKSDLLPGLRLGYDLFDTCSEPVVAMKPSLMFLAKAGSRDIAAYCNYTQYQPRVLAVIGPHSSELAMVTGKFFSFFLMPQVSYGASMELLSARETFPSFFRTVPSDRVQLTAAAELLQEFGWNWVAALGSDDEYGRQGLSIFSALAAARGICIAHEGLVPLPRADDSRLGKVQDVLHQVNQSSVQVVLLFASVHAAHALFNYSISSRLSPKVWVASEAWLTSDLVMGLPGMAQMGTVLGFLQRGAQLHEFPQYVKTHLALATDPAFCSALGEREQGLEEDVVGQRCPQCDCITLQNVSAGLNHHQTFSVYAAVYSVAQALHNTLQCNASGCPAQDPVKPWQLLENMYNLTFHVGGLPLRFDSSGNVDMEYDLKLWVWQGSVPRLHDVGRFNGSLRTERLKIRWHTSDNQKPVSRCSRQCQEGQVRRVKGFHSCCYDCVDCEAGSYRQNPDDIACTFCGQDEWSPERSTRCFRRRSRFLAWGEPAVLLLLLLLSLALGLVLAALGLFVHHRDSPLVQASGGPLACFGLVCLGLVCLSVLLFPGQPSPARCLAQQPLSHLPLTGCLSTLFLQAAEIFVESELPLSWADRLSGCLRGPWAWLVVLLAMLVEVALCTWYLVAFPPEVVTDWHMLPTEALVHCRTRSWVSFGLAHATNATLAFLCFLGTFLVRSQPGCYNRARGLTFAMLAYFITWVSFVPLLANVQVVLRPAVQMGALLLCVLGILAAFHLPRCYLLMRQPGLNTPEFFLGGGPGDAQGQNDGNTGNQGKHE
Sequence (Q8TE23 20-839 partner): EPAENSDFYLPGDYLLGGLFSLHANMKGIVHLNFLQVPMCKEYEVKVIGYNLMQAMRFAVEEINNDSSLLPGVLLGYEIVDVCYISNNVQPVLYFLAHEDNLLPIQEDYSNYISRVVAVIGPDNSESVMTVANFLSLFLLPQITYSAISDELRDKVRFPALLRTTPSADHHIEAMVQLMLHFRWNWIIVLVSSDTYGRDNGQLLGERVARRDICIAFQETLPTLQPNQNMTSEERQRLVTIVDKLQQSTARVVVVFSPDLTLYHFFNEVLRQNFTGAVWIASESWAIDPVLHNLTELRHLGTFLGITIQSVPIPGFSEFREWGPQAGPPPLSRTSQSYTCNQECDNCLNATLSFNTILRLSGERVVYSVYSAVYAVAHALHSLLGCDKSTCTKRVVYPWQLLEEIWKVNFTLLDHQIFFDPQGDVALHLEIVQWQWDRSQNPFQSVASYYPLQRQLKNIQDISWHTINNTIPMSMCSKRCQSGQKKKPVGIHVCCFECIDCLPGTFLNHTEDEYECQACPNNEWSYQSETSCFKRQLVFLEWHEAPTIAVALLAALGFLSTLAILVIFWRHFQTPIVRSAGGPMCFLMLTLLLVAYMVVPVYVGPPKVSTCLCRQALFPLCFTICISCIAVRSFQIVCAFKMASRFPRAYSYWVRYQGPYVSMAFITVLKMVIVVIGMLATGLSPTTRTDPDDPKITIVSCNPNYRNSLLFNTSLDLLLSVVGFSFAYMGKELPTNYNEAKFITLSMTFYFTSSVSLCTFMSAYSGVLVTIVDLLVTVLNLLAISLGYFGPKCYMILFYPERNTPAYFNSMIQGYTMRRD
Assay: sweet receptor inhibition assay (receptor activated with 2.5 mM sucralose)
Format: cell-based
Details: read-out: IC50 values, human T1R3 inhibitors
experimental endpoint: IC50 (nM)

In [3]: df
Out[3]:
                                   molecule  quantitative_readout
0  CC(C)(Oc1ccc(Cl)cc1)C(=O)O [clofibric acid]                    28

* * *

Target: human T1R3 receptor (Homo sapiens)
Construct: expressed in transfected cells
Sequence (Q7RTX0 21-852): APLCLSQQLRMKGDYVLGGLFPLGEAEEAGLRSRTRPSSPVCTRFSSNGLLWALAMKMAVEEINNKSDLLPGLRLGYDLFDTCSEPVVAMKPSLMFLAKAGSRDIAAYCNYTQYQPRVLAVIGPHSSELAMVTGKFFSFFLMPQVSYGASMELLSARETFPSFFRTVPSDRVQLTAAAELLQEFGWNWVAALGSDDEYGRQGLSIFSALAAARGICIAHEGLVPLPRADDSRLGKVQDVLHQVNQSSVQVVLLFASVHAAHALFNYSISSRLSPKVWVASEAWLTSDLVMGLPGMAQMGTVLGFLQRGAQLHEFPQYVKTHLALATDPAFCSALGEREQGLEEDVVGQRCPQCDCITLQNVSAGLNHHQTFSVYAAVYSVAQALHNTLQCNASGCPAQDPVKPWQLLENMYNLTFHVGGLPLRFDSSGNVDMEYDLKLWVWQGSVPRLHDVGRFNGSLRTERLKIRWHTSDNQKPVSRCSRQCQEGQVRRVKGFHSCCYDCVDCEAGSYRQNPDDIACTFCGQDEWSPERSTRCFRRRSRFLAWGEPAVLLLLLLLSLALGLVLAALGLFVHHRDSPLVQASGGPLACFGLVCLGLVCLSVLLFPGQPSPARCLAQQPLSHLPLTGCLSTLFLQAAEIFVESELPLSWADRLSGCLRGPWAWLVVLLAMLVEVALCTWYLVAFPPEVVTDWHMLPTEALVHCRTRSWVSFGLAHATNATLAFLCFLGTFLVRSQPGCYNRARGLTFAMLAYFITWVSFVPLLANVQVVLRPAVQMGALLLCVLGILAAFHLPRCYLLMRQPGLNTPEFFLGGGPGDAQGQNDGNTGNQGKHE
Sequence (Q8TE23 20-839 partner): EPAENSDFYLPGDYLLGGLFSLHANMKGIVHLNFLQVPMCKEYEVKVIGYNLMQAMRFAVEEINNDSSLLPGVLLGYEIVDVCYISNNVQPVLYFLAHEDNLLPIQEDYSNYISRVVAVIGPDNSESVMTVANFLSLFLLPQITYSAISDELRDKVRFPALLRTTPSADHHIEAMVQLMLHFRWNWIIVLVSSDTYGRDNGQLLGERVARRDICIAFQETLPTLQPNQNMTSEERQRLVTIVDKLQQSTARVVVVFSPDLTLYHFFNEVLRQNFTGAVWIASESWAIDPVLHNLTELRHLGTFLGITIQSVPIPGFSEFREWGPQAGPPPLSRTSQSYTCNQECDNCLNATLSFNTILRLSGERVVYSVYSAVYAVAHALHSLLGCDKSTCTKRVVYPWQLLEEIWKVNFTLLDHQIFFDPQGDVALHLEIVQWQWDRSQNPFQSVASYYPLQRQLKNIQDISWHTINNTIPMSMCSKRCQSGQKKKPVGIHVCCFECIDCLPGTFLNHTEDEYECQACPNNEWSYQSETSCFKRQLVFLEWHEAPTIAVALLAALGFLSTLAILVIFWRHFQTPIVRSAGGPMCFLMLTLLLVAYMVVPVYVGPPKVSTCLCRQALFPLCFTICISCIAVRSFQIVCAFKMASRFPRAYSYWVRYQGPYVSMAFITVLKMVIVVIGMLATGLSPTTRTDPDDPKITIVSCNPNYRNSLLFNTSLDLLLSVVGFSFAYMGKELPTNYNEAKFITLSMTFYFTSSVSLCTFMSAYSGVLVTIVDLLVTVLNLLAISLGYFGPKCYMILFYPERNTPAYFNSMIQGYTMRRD
Assay: sweet receptor inhibition assay (receptor activated with 2.5 mM sucralose)
Assay type: cell-based
Details: read-out: IC50, block of the T1R3 receptor
experimental endpoint: IC50 (µM)

                                   molecule  quantitative_readout
0  CC(C)(Oc1ccc(Cl)cc1)C(=O)O [clofibric acid]                    28

Entry source: patent US20150045610A1
